- assay-method-text: Particle size and polydispersity index of nanoparticle compositions (Zetasizer Nano ZS)
- Assay type: physicochemical
- settings: Table 1B; formulated with hEPO mRNA
property-measured: PDI
Please state the value as a number alone, without comment.

[[record]]
compound = "CCCCCCCCCOC(=O)CCCCCCCN(CCO)CCCCCCCC(=O)OC(CCCCCCCC)CCCCCCCC [Compound 18]"
endpoint_value = 0.14

[[record]]
compound = "CCCCCCCCCOC(=O)CCCCCCCN(CCO)CCCCCCCCCC(=O)OC(CCCCCC)CCCCCC [Compound 147]"
endpoint_value = 0.22

[[record]]
compound = "CCCCCCCCCOC(=O)CCCCCCCN(CCO)CCCCCCC(C)OC(=O)C(CCCCCCCC)CCCCCCCC (stereo not drawn) [Compound 234]"
endpoint_value = 0.22

[[record]]
compound = "CCCC/C=C\\CCC(CC/C=C\\CCCC)OC(=O)CCCCCCCN(CCO)CCCCCCCC(=O)OCCCCCCCCC [Compound 60]"
endpoint_value = 0.15

[[record]]
compound = "CCCCCCCCCOC(=O)CCCCCCCN(CCCCCCCC(=O)OC(CCCCCCCC)CCCCCCCC)CCCNC(=O)N(C)C [Compound 110]"
endpoint_value = 0.24


Briefly, PDI measured for CCCCCCCCCOC(=O)CCCCCCCN(CCCCCCCC(=O)OC(CCCCCCCC)CCCCCCCC)CCCN/C(=N/[N+](=O)[O-])NC [Compound 200] : 0.19

Briefly, PDI measured for CCCCCCCCCOC(=O)CCCCCCCN(CCCCCCCC(=O)OC(CCCCCCCC)CCCCCCCC)CCCN/C(=N/S(C)(=O)=O)N(C)C [Compound 233] : 0.21

Briefly, PDI measured for CCCCCCCCC(CCCCCCCC)OC(=O)CCCCCCCN(CCO)CCCCCC(=O)OC(C)CCCCCCCCOC(C)=O (stereo not drawn) [Compound 235] : 0.24
